- assay.system: ALK (Homo sapiens, UniProt Q9UM73)
- Sequence (Q9UM73 19-1620): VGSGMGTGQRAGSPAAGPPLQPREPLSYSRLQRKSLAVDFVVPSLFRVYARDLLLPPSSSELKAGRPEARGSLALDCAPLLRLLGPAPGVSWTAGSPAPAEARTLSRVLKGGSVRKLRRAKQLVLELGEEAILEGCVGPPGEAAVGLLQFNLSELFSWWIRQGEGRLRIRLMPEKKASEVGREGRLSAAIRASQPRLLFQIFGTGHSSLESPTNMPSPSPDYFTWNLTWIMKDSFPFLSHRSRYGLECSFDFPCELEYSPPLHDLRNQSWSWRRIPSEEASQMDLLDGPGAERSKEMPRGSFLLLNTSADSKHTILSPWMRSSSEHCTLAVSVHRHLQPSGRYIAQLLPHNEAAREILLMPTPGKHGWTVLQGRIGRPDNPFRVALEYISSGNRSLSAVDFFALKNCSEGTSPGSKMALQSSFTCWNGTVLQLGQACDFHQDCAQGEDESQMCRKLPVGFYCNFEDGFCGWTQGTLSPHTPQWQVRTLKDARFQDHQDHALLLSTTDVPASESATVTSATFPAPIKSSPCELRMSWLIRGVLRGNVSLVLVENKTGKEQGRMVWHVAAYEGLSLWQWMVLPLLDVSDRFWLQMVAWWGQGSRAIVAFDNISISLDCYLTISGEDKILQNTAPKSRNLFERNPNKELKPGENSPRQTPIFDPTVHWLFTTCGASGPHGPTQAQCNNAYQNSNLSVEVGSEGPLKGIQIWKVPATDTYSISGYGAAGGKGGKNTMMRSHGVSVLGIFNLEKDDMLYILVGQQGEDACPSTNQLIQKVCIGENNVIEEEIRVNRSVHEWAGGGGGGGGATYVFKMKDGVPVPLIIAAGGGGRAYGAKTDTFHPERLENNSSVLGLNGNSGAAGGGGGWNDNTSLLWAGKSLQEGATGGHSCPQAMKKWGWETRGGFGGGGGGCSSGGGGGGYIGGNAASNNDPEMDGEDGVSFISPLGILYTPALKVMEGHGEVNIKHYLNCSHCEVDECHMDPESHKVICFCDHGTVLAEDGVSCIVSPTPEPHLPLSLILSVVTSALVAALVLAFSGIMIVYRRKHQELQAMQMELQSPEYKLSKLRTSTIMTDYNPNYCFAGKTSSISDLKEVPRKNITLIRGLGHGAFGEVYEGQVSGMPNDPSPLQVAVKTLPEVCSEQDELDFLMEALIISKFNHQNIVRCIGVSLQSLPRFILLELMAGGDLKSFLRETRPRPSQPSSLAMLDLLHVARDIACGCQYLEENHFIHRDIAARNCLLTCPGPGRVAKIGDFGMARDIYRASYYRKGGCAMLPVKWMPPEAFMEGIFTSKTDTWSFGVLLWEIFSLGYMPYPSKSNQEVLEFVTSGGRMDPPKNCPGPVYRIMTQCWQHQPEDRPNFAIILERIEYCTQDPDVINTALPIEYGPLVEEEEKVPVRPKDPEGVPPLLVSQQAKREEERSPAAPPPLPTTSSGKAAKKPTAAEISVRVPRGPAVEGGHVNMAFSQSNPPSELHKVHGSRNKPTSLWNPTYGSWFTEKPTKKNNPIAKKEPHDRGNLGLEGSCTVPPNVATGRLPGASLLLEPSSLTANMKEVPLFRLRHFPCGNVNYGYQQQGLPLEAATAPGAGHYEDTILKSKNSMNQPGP
- experiment.summary: Test for measurement of ALK inhibition (ELISA, GST-PLCγ1 substrate, luminescence)
- Type: biochemical
- condition: enzymatic IC50 on ALK, 250 μM ATP, class symbols; read-out: IC50 (ALK)
pIC50: −log10 of the molar value.
# pIC50 values compiled below

Consider the reported pIC50 for these molecules:
>>> test_result("Cc1n[nH]c2nc(-c3ccc(O)c(C(F)(F)F)c3)c3c(=O)[nH]c4cc(N5CCNCC5)ccc4c3c12")
"6.00 to 7.00"
>>> test_result("O=c1[nH]c2cc(N3CCNCC3)ccc2c2c1c(-c1ccc(O)cc1)nc1[nH]nc(-c3ccco3)c12")
"> 7.00"
>>> test_result("COc1ccc(-c2nc3[nH]nc(C)c3c3c2c(=O)oc2ccccc23)cc1")
"5.00 to 6.00"
>>> test_result("Nc1n[nH]c2nc(-c3ccc(O)cc3)c3c(=O)[nH]c4ccccc4c3c12")
"> 7.00"
>>> test_result("O=c1[nH]c2ccccc2c2c1c(-c1ccc(O)cc1)nc1[nH]nc(-c3ccc(N4CCNCC4)cc3)c12")
"> 7.00"

Ask: API: value(readout= pIC50, system= ALK (Homo sapiens, UniProt Q9UM73), query= `Cc1n[nH]c2nc(-c3ccc(O)cc3)c3c(=O)[nH]c4ccccc4c3c12` )
Reply: > 7.00

Ask: # returns recorded pIC50 (system: ALK (Homo sapiens, UniProt Q9UM73)) for `CCn1cc(-c2ccc(N3CCNCC3)cc2)c2c(c(-c3ccc(O)cc3)nc3[nH]nc(N)c32)c1=O`
Reply: 5.00 to 6.00
